molecular target: BRAF V600E (Homo sapiens, UniProt P15056, V600E); construct: expressed in transfected cells; assay: Cellular assay of target protein degradation, T-Rex 293 cells stably transfected with HA-BRAF_V600E (HA immunofluorescence, high content imaging); type: cell-based; settings: half maximal degradation, T-Rex 293 HA-BRAF V600E; read-out: BRaf V600E DC50
Sequence (P15056 whole entry V600E): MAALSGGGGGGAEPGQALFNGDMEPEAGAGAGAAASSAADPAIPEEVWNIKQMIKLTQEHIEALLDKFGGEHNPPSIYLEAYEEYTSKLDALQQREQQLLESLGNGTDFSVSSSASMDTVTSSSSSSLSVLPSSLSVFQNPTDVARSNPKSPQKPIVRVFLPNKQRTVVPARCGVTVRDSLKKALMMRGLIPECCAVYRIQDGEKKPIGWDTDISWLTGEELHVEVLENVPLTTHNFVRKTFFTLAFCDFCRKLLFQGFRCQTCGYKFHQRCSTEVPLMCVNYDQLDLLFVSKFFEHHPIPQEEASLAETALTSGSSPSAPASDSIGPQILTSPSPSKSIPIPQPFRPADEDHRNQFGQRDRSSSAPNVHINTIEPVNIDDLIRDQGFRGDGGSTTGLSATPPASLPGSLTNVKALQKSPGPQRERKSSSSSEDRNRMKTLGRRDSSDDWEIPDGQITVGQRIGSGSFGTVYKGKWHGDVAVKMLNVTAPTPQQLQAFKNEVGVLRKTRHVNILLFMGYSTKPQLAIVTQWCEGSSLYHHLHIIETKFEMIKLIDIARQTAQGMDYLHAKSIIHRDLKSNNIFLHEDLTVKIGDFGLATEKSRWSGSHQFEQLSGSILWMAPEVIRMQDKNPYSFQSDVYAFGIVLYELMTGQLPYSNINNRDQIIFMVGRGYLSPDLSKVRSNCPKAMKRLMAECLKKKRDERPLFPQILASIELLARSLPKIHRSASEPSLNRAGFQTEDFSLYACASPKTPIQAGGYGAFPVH
experimentalReadout: DC50

Report DC50 from BRAF V600E (Homo sapiens, UniProt P15056, V600E) testing of N#Cc1cc(-c2cnc3[nH]cc(C(=O)c4c(F)ccc(NS(=O)(=O)N5CC[C@@H](F)C5)c4F)c3c2)cc(C#N)c1N1CCC(CN2CCC(c3ccc4c(c3)CN([C@H]3CCC(=O)NC3=O)C4=O)CC2)CC1
5 to 50 nM

Report DC50 from BRAF V600E (Homo sapiens, UniProt P15056, V600E) testing of O=C1CC[C@H](N2Cc3cc(C[C@@H](O)CN4CC5(C4)CN(c4ccc(-c6cnc7[nH]cc(C(=O)c8c(F)ccc(NS(=O)(=O)N9CC[C@@H](F)C9)c8F)c7c6)cc4)C5)ccc3C2=O)C(=O)N1
5 to 50 nM

Report DC50 from BRAF V600E (Homo sapiens, UniProt P15056, V600E) testing of O=C1CC[C@@H](N2Cc3cc(C[C@H](O)CN4CCN(c5ccc(-c6cnc7[nH]cc(C(=O)c8c(F)ccc(NS(=O)(=O)N9CC[C@@H](F)C9)c8F)c7c6)cc5)CC4)ccc3C2=O)C(=O)N1
< 5 nM

###

For each of the compounds below, state its Dmax.
biological target: BRAF V600E (Homo sapiens, UniProt P15056, V600E); construct: expressed in transfected cells; test: Cellular assay of target protein degradation, T-Rex 293 cells stably transfected with HA-BRAF_V600E (HA immunofluorescence, high content imaging); assay type: cell-based; conditions: maximum degradation observed, T-Rex 293 HA-BRAF V600E

Report Dmax from BRAF V600E (Homo sapiens, UniProt P15056, V600E) testing of O=C1CCC(N2Cc3cc(N4CC(CN5CCN(C6CCN(c7ccc(-c8cnc9[nH]cc(C(=O)c%10c(F)ccc(NS(=O)(=O)N%11CC[C@@H](F)C%11)c%10F)c9c8)cc7)CC6)CC5)C4)ccc3C2=O)C(=O)N1 (stereo partly shown)
< 35%

Report Dmax from BRAF V600E (Homo sapiens, UniProt P15056, V600E) testing of O=C1CC[C@H](N2Cc3cc([C@@H](O)CCN4CCN(c5ccc(-c6cnc7[nH]cc(C(=O)c8c(F)ccc(NS(=O)(=O)N9CC[C@@H](F)C9)c8F)c7c6)cc5)CC4)c(F)cc3C2=O)C(=O)N1
35 to 70%

Report Dmax from BRAF V600E (Homo sapiens, UniProt P15056, V600E) testing of O=C1CCC(N2Cc3cc(N4CCC(CN5CC6(CCN(c7ncc(-c8cnc9[nH]cc(C(=O)c%10c(F)ccc(NS(=O)(=O)N%11CC[C@@H](F)C%11)c%10F)c9c8)cn7)C6)C5)CC4)ccc3C2=O)C(=O)N1 (stereo partly shown)
35 to 70%

Report Dmax from BRAF V600E (Homo sapiens, UniProt P15056, V600E) testing of O=C1CC[C@H](N2Cc3cc(C4CCN(CC5CCN(c6ccc(-c7cnc8[nH]cc(C(=O)c9c(F)ccc(NS(=O)(=O)CC%10CC%10)c9F)c8c7)cc6)CC5)CC4)ccc3C2=O)C(=O)N1
35 to 70%

###

molecular target: BRAF V600E (Homo sapiens, UniProt P15056, V600E); construct: expressed in transfected cells; test: Cellular assay of target protein degradation, T-Rex 293 cells stably transfected with HA-BRAF_V600E (HA immunofluorescence, high content imaging); format: cell-based; details: maximum degradation observed, T-Rex 293 HA-BRAF V600E
For each of the compounds below, state its Dmax.

Report Dmax from BRAF V600E (Homo sapiens, UniProt P15056, V600E) testing of COc1cc(N2CC3(C2)CN(CC2CCN(c4ccc(-c5cnc6[nH]cc(C(=O)c7c(F)ccc(NS(=O)(=O)N8CC[C@@H](F)C8)c7F)c6c5)cc4)CC2)[C@H]3C)cc2c1C(=O)N(C1CCC(=O)NC1=O)C2 (stereo partly drawn) [Compound 12]
> 70%

Report Dmax from BRAF V600E (Homo sapiens, UniProt P15056, V600E) testing of COc1cc([C@H](O)CCN2CCN(c3ccc(-c4cnc5[nH]cc(C(=O)c6c(F)ccc(NS(=O)(=O)N7CC[C@@H](F)C7)c6F)c5c4)cc3)CC2)cc2c1C(=O)N([C@H]1CCC(=O)NC1=O)C2 [Compound 186]
35 to 70%

Report Dmax from BRAF V600E (Homo sapiens, UniProt P15056, V600E) testing of C[C@H]1[C@H](F)CCN1S(=O)(=O)Nc1ccc(F)c(C(=O)c2c[nH]c3ncc(-c4ccc(N5CCC(CN6CCC(c7ccc8c(c7)CN(C7CCC(=O)NC7=O)C8=O)CC6)CC5)cc4)cc23)c1F (stereo partly drawn) [Compound 271]
35 to 70%

###

target: BRAF G466V (Homo sapiens, UniProt P15056, G466V); construct: expressed in transfected cells; experiment: Cellular assay of target protein degradation, T-Rex 293 cells stably transfected with HA-BRAF G466V (HA immunofluorescence, high content imaging); format: cell-based; conditions: maximum degradation observed, T-Rex 293 HA-BRAF G466V
Sequence (P15056 whole entry G466V): as the sequence (P15056 whole entry V600E) above, with G466V, E600V counted along it
experimentalReadout: Dmax

Quickly give me recorded Dmax for O=C1CCC(N2Cc3cc(C4CCN(CC5CCN(c6ccc(-c7cnc8[nH]cc(C(=O)c9c(F)ccc(NS(=O)(=O)N%10CCC(F)(F)C%10)c9F)c8c7)cc6)CC5)CC4)ccc3C2=O)C(=O)N1 (centres unmarked)
> 70%

Quickly give me recorded Dmax for CNc1cc(-c2cnc3[nH]cc(C(=O)c4c(F)ccc(NS(=O)(=O)N5CC[C@@H](F)C5)c4F)c3c2)cc(NC)c1N1CCC(CN2CCC(c3ccc4c(c3)CN(C3CCC(=O)NC3=O)C4=O)CC2)CC1 (some centres unmarked)
35 to 70%

Quickly give me recorded Dmax for O=C1CCC(N2Cc3cc([C@H](O)CN4CC5(C4)CN(c4ccc(-c6cnc7[nH]cc(C(=O)c8c(F)ccc(NS(=O)(=O)N9CC[C@@H](F)C9)c8F)c7c6)cc4)C5)ccc3C2=O)C(=O)N1 (some centres unmarked)
> 70%

Quickly give me recorded Dmax for O=C1CCC(N2Cc3cc(OCCCOC4CCN(c5ccc(-c6cnc7[nH]cc(C(=O)c8c(F)ccc(NS(=O)(=O)N9CC[C@@H](F)C9)c8F)c7c6)cc5)CC4)ccc3C2=O)C(=O)N1 (some centres unmarked)
> 70%

Quickly give me recorded Dmax for O=C1CC[C@@H](N2Cc3cc(C4CCN(CC5CCN(c6ccc(-c7cnc8[nH]cc(C(=O)c9c(F)ccc(NS(=O)(=O)N%10CCC(F)(F)C%10)c9F)c8c7)cc6)CC5)CC4)ccc3C2=O)C(=O)N1
> 70%

###

biological target: BRAF G466V (Homo sapiens, UniProt P15056, G466V); construct: expressed in transfected cells; assay: Cellular assay of target protein degradation, T-Rex 293 cells stably transfected with HA-BRAF G466V (HA immunofluorescence, high content imaging); assay type: cell-based; details: maximum degradation observed, T-Rex 293 HA-BRAF G466V
experimentalReadout: Dmax

Quickly give me recorded Dmax for O=C1CCC(N2Cc3cc(C4CCN(CC5CC6(C5)CN(c5ccc(-c7cnc8[nH]cc(C(=O)c9c(F)ccc(NS(=O)(=O)N%10CC[C@@H](F)C%10)c9F)c8c7)cc5F)C6)CC4)ccc3C2=O)C(=O)N1 (some centres unmarked) [Compound 319]
> 70%

Quickly give me recorded Dmax for O=C1CCC(N2Cc3cc(N4CC(CN5CCN(C6(c7ncc(-c8cnc9[nH]cc(C(=O)c%10c(F)ccc(NS(=O)(=O)N%11CC[C@@H](F)C%11)c%10F)c9c8)cn7)CC6)CC5)C4)ccc3C2=O)C(=O)N1 (some centres unmarked) [Compound 320]
35 to 70%

###

target: BRAF G466V (Homo sapiens, UniProt P15056, G466V); construct: expressed in transfected cells; test: Cellular assay of target protein degradation, T-Rex 293 cells stably transfected with HA-BRAF G466V (HA immunofluorescence, high content imaging); type: cell-based; settings: maximum degradation observed, T-Rex 293 HA-BRAF G466V
For each of the compounds below, state its Dmax.

Quickly give me recorded Dmax for O=C1CCC(N2Cc3cc(N4CCC(F)(CN5CC6(C5)CN(c5ccc(-c7cnc8[nH]cc(C(=O)c9c(F)ccc(NS(=O)(=O)N%10CC[C@@H](F)C%10)c9F)c8c7)cc5)C6)CC4)ccc3C2=O)C(=O)N1 (stereo partly drawn)
35 to 70%

Quickly give me recorded Dmax for O=C1CC[C@H](N2Cc3cc(C[C@@H](O)CN4CCC(c5ccc(-c6cnc7[nH]cc(C(=O)c8c(F)ccc(NS(=O)(=O)N9CC[C@@H](F)C9)c8F)c7c6)cc5)CC4)ccc3C2=O)C(=O)N1
35 to 70%

Quickly give me recorded Dmax for O=C1CC[C@@H](N2Cc3cc(C4CCN(CC5CCN(c6ccc(-c7cnc8[nH]cc(C(=O)c9c(F)ccc(NS(=O)(=O)N%10CC[C@@H](F)C%10)c9F)c8c7)cc6F)CC5)CC4)ccc3C2=O)C(=O)N1
> 70%

Quickly give me recorded Dmax for O=C1CC[C@H](NC(=O)c2ccc(N3CC4(CN(CCc5ccc(-c6cnc7[nH]cc(C(=O)c8c(F)ccc(NS(=O)(=O)N9CC[C@@H](F)C9)c8F)c7c6)cc5)C4)C3)cc2F)C(=O)N1
> 70%

Quickly give me recorded Dmax for O=C1CC[C@@H](N2Cc3cc(OC[C@H](O)CN4CC5(C4)CN(c4ccc(-c6cnc7[nH]cc(C(=O)c8c(F)ccc(NS(=O)(=O)N9CC[C@@H](F)C9)c8F)c7c6)cc4)C5)ccc3C2=O)C(=O)N1
> 70%

Quickly give me recorded Dmax for O=C1CC[C@H](N2Cc3cc(OC[C@H](O)CN4CC5(C4)CN(c4ccc(-c6cnc7[nH]cc(C(=O)c8c(F)ccc(NS(=O)(=O)N9CC[C@@H](F)C9)c8F)c7c6)cc4)C5)ccc3C2=O)C(=O)N1
> 70%

Quickly give me recorded Dmax for O=C1CC[C@H](N2Cc3cc(OCCCN4CC5(C4)CN(c4ccc(-c6cnc7[nH]cc(C(=O)c8c(F)ccc(NS(=O)(=O)N9CC[C@@H](F)C9)c8F)c7c6)cc4)C5)ccc3C2=O)C(=O)N1
> 70%

Quickly give me recorded Dmax for C[C@H]1CCCN1S(=O)(=O)Nc1ccc(F)c(C(=O)c2c[nH]c3ncc(-c4ccc(N5CCC(CN6CCC(c7ccc8c(c7)CN([C@H]7CCC(=O)NC7=O)C8=O)CC6)CC5)cc4)cc23)c1F
35 to 70%

Quickly give me recorded Dmax for O=C1CCC(N2Cc3cc(N4CCN(C[C@H](O)Cc5ccc(-c6cnc7[nH]cc(C(=O)c8c(F)ccc(NS(=O)(=O)N9CC[C@@H](F)C9)c8F)c7c6)cc5)CC4)ccc3C2=O)C(=O)N1 (stereo partly drawn)
35 to 70%

Quickly give me recorded Dmax for COc1cc(N2CC3(CN(CCc4ccc(-c5cnc6[nH]cc(C(=O)c7c(F)ccc(NS(=O)(=O)N8CC[C@@H](F)C8)c7F)c6c5)cc4)C3)C2)ccc1C(=O)NC1CCC(=O)NC1=O (stereo partly drawn)
> 70%

Quickly give me recorded Dmax for C[C@H]1[C@H](F)CCN1S(=O)(=O)Nc1ccc(F)c(C(=O)c2c[nH]c3ncc(-c4ccc(N5CCC(CN6CCC(c7ccc8c(c7)CN([C@H]7CCC(=O)NC7=O)C8=O)CC6)CC5)cc4)cc23)c1F
> 70%

Quickly give me recorded Dmax for O=C1CC[C@@H](N2Cc3cc(C[C@H](O)CN4CCC(c5ccc(-c6cnc7[nH]cc(C(=O)c8c(F)ccc(NS(=O)(=O)N9CC[C@@H](F)C9)c8F)c7c6)cc5)CC4)ccc3C2=O)C(=O)N1
35 to 70%

Quickly give me recorded Dmax for C[C@H]1CC[C@H](C)N1S(=O)(=O)Nc1ccc(F)c(C(=O)c2c[nH]c3ncc(-c4ccc(N5CCC(CN6CCC(c7ccc8c(c7)CN([C@H]7CCC(=O)NC7=O)C8=O)CC6)CC5)cc4)cc23)c1F
35 to 70%

Quickly give me recorded Dmax for O=C1CCC(N2Cc3cc(C4CCN(C[C@@H]5C[C@H]6CC[C@@H](C5)N6c5ccc(-c6cnc7[nH]cc(C(=O)c8c(F)ccc(NS(=O)(=O)N9CC[C@@H](F)C9)c8F)c7c6)cc5)CC4)ccc3C2=O)C(=O)N1 (stereo partly drawn)
> 70%

Quickly give me recorded Dmax for COc1cc(N2CC3(CN(CCc4ccc(-c5cnc6[nH]cc(C(=O)c7c(F)ccc(NS(=O)(=O)N8CC[C@@H](F)C8)c7F)c6c5)cc4)C3)C2)cc2c1C(=O)N(C1CCC(=O)NC1=O)C2 (stereo partly drawn)
35 to 70%

Quickly give me recorded Dmax for CN(CC(F)F)S(=O)(=O)Nc1ccc(F)c(C(=O)c2c[nH]c3ncc(-c4ccc(N5CCC(CN6CCC(c7ccc8c(c7)CN(C7CCC(=O)NC7=O)C8=O)CC6)CC5)cc4)cc23)c1F (stereo not drawn)
> 70%

Quickly give me recorded Dmax for O=C1CC[C@H](N2Cc3cc([C@H](O)CCN4CCC(c5ccc(-c6cnc7[nH]cc(C(=O)c8c(F)ccc(NS(=O)(=O)N9CC[C@@H](F)C9)c8F)c7c6)cc5)CC4)ccc3C2=O)C(=O)N1
> 70%

Quickly give me recorded Dmax for O=C1CCC(N2Cc3cc(N4CC(CC5CCN(c6ccc(-c7cnc8[nH]cc(C(=O)c9c(F)ccc(NS(=O)(=O)N%10CC[C@@H](F)C%10)c9F)c8c7)cc6)CC5)C4)ccc3C2=O)C(=O)N1 (stereo partly drawn)
35 to 70%
